These measurements were taken from BindingDB's records for doi:10.1016/s0960-894x(03)00014-3.

Consider the following compounds; for each one, report its IC50.
Test: Inhibition of T-cell proliferation was determined by a human T-cell assay
Numbers only, in nM.

Below are worked cases with known answers.
>>> experimental_result("C=CCNC(=O)O[C@H]1CC[C@@](CNC(=O)c2ccccc2OC)(c2ccccc2)CC1")
361
>>> experimental_result("C=C(C)CNC(=O)O[C@H]1CC[C@@](CNC(=O)c2ccccc2OC)(c2ccccc2)CC1")
688

// switching to the query compound
# query: IC50 of entry `COc1ccccc1C(=O)NC[C@]1(c2ccccc2)CC[C@@H](NC(=O)SC)CC1`
618

###

Assay: Inhibition of T-cell proliferation was determined by a human T-cell assay
Endpoint Name: IC50
Note: a bare number is incomplete; add the unit.

>>> experimental_result("COc1ccccc1C(=O)NC[C@]1(c2ccccc2)CC[C@H](OC(=O)NCc2ccccc2)CC1")
"915 nM"

Give IC50 for all molecules that follow.
1. C=CCNC(=O)O[C@H]1CC[C@](CNC(=O)c2ccccc2OC)(c2ccccc2)CC1
2. C=CCOC(=O)N[C@H]1CC[C@](CNC(=O)c2ccccc2OC)(c2ccccc2)CC1
3. COc1ccccc1C(=O)NC[C@]1(c2ccccc2)CC[C@H](OC(=O)Nc2ccccc2)CC1
4. COc1ccccc1C(=O)NCC1(c2ccccc2)CCC(=O)CC1
5. COc1ccccc1C(=O)NC[C@]1(c2ccccc2)CC[C@H](NC(=O)CCc2ccccc2)CC1

1: 1100 nM; 2: 354 nM; 3: 237 nM; 4: 1200 nM; 5: 200 nM

Give IC50 for all molecules that follow.
1. COC(=O)N[C@H]1CC[C@@](CNC(=O)c2ccccc2OC)(c2ccccc2)CC1
2. CCCCNC(=O)O[C@H]1CC[C@](CNC(=O)c2ccccc2OC)(c2ccccc2)CC1
3. COc1ccccc1C(=O)NC[C@]1(c2ccccc2)CC[C@H](OC(=O)NC(C)C)CC1

1. 1060 nM
2. 320 nM
3. 892 nM

Give IC50 for all molecules that follow.
1. C=CCOC(=O)N[C@H]1CC[C@@](CNC(=O)c2ccccc2OC)(c2ccccc2)CC1
2. COc1ccccc1C(=O)NC[C@]1(c2ccccc2)CC[C@@H](OC(=O)NCCO)CC1
3. COCCNC(=O)O[C@H]1CC[C@@](CNC(=O)c2ccccc2OC)(c2ccccc2)CC1

539 nM
1790 nM
1000 nM

###

Experiment: Inhibition of T-cell proliferation was determined by a human T-cell assay
Consider the following compounds; for each one, report its IC50.
Answers are plain numbers, in nM.

>>> experimental_result("COc1ccccc1C(=O)NC[C@]1(c2ccccc2)CC[C@@H](OC(=O)NC(C)C)CC1")
222
>>> experimental_result("CNC(=O)O[C@H]1CC[C@](CNC(=O)c2ccccc2OC)(c2ccccc2)CC1")
1260

Give IC50 for all compounds that follow.
1. COc1ccccc1C(=O)NC[C@]1(c2ccccc2)CC[C@H](OC(N)=O)CC1
2. CCCCNC(=O)O[C@H]1CC[C@@](CNC(=O)c2ccccc2OC)(c2ccccc2)CC1

[519, 688]

# query: IC50 of entry `C=CCNC(=O)N[C@H]1CC[C@@](CNC(=O)c2ccccc2OC)(c2ccccc2)CC1`
676

###

Assay: Inhibition of T-cell proliferation was determined by a human T-cell assay
Endpoint Name: IC50 (nM)
Answers are plain numbers, in nM.

>>> experimental_result("CNC(=O)O[C@H]1CC[C@@](CNC(=O)c2ccccc2OC)(c2ccccc2)CC1")
195
>>> experimental_result("C=CCN(C)C(=O)O[C@H]1CC[C@](CNC(=O)c2ccccc2OC)(c2ccccc2)CC1")
659
>>> experimental_result("COc1ccccc1C(=O)NC[C@]1(c2ccccc2)CC[C@H](NC(=O)c2ccccc2)CC1")
154
>>> experimental_result("C=CCNC(=O)N[C@H]1CC[C@](CNC(=O)c2ccccc2OC)(c2ccccc2)CC1")
430
>>> experimental_result("COc1ccccc1C(=O)NC[C@]1(c2ccccc2)CC[C@H](NC(=O)Cc2ccccc2)CC1")
609
>>> experimental_result("C/C=C/C(=O)N[C@H]1CC[C@](CNC(=O)c2ccccc2OC)(c2ccccc2)CC1")
399

// switching to the query compound
# query: IC50 of entry `CCCNC(=O)O[C@H]1CC[C@@](CNC(=O)c2ccccc2OC)(c2ccccc2)CC1`
273
